Molecular target: Lysine-specific demethylase 5B (Homo sapiens)
Test: Primary screen for KDM5B Histone Demethylases FDH-coupled qHTS; note: nearly all actives have a fitted effect of over 70% in size
Conditions: FDH-coupled NADH fluorescence (FDH is formaldehyde dehydrogenase); series mostly up to 57.7 µM
Hit rate of the full screen: of about 220,000 compounds, about 5,700 (2.6%) were called active. Another 18% or so got no clear call; they are omitted. Calls come from the whole dose curve; as a rule, active = well fitted inhibition curve with a large enough effect; inconclusive = small, poorly fitted or top-dose-only effect; inactive = no such curve, though single readings can be large or run the other way. The full list was thinned out, with actives kept by preference.
Classes used: active, inactive

compound | group label
CCCS(=O)(=O)N1CCC(Cc2nc(-c3cccnc3)n[nH]2)C1 (stereo not given) | inactive
CC(NC(=O)CNC(=O)c1ccc(N2CCCC2=O)cc1)c1ccccc1Br (stereo not given) | inactive
Cc1ccc2c(C(=O)N3CCCC(C#N)C3)cc(-c3cnn(C(C)C)c3)nc2c1 (stereo not given) | active
CCNC(=O)NC(=O)C(C)OC(=O)c1ccc(C(=O)OC)cc1 (stereo not given) | inactive
CC(C)NC(=O)c1ccccc1NC(=O)C(Cl)Cl | inactive
COc1ccc(OC)c(S(=O)(=O)N2CCCC(C(=O)NCCc3ccccc3)C2)c1 (stereo not given) | inactive
O=C(CN1CCN(Cc2ccc(Cl)cc2)C1=O)NCc1ccc(F)cc1 | inactive
O=C(c1ccc2cc[nH]c2n1)N1CCOCC1 | active
O=C(Cn1cccc1-c1nc(-c2ccccc2)no1)Nc1ccccc1F | inactive
CC(NC(=O)/C=C/c1ccsc1)C1CCCO1 (stereo not given) | inactive
CC(C)n1nc(C(=O)Nc2ccc(Nc3ccccc3)cc2)c2ccccc2c1=O | inactive
CC(C)CCNC(=O)NC(=O)CSc1nnc(-c2ccccc2)c(-c2ccccc2)n1 | inactive
O=c1cc(-c2cccnc2)oc2c(-c3ccccc3O)nccc12 | inactive
Cc1nc(-c2cn(C3CCCN(C(=O)c4cc(F)ccc4F)C3)nn2)no1 (stereo not given) | inactive
CC(C)(C)OC(=O)N1CCN(C(=O)c2cc(-c3ccncc3)nc3ccccc23)CC1 | inactive
O=C1Nc2cnccc2C2(CCN(C(=O)c3ccccc3F)C2)O1 (stereo not given) | active
O=C(O)Cc1ccc(NC(=O)Nc2cccc3ccccc23)cc1 | inactive
COc1ccc(C(=O)Nc2oc3ccc(Cl)cc3c(=O)c2-c2cc(OC)c(OC)c(OC)c2)cc1 | inactive
COc1ccc(C(=O)OCC(=O)NCCCc2ccccc2)cc1OC | inactive
COc1cc(C(=O)OC2CCCCC2=O)ccc1OCc1ccccc1Cl (stereo not given) | inactive
CN(c1ccccc1)c1cc(=O)c2ccnc(-c3ccc(CO)cc3)c2o1 | inactive
COc1ccc(OC)c2[nH]c(C(=O)NCC(=O)Nc3nc(C)cs3)cc12 | inactive
Cc1c(-c2ccccc2)nc2ccccc2c1C(=O)OCC(N)=O | inactive
C=C(Br)CN1CCCC1 | inactive
CONC(=O)Cc1ccc(OC)cc1 | inactive
COc1ccc(CNC(=O)NCC(=O)N2CCCCCCNC(=O)CC2c2ccccc2)cc1 (stereo not given) | inactive
C=CCCC(CN1CCCC1)Oc1cncc(C(=O)N2CCCC2)n1 (stereo not given) | active
Cc1nc(N(C)C)ncc1C(=O)N[C@@H]1CCOC[C@H]1Oc1ccccn1 | active
COc1cccc(Cn2c(SCc3ccc(C(=O)N4CCCCC4)cc3)nc3ccncc32)c1 | inactive
O=C(c1ccccc1F)N1CCC2(CC1)C(=O)Nc1ccccc12 | inactive
O=C1NC(C(=O)NCc2ccccn2)Cn2cccc21 (stereo not given) | inactive
CCn1c(=O)c2ccccc2n(CC(=O)Nc2ccccc2C(F)(F)F)c1=O | inactive
COc1ccc(OC)c(NC(=O)Cn2ccc3ccc(Cl)cc32)c1 | inactive
CC(C)NC(NC(=O)c1ccc(C(C)(C)C)cc1)C(Cl)(Cl)Cl (stereo not given) | inactive
Cc1ccsc1C(=O)N1CCCC2(C1)Nc1cccnc1NC2=NC1CCCC1 (stereo not given) | active
CCCS(=O)(=O)N1CCC2(CC1)C(OC)C(=O)N2CC1CC1 (stereo not given) | inactive
O=C(c1nc(-c2cccnc2)c2cnccn12)N1CCN(c2ncccn2)CC1 | inactive
CCOc1nccnc1NC1CCN(C(=O)c2cccnc2)CC1 | active
CCOC(=O)C1CCN(CC(O)c2cccc(C(F)(F)F)c2)CC1 (stereo not given) | inactive
O=C(c1nc(-c2ccsc2)c2cnccn12)N1CCCC1 | active
CC(=O)Nc1cccc(C(=O)N2CCC3(CC2)NC(=O)N(c2cccc(Cl)c2)N3)c1 | inactive
CCCS(=O)(=O)N1CCC(Nc2nccnc2OCC)CC1 | active
COc1ccc(C(=O)N2CCCC3(C2)C(=NC2CCCC2)NC(=O)N3c2cc(F)cc(F)c2)cc1 (stereo not given) | inactive
O=c1cc(-c2cccnc2)oc2c(-c3cccc(CO)c3)nccc12 | active
CC(Sc1ncnc2nc[nH]c12)C(=O)NCc1ccc(Cl)c(Cl)c1 (stereo not given) | inactive
